Data provenance is patent US20250171459A1.

System name: APOL1 (Homo sapiens, UniProt O14791)
Sequence (O14791 whole entry S342G/I384M, form open): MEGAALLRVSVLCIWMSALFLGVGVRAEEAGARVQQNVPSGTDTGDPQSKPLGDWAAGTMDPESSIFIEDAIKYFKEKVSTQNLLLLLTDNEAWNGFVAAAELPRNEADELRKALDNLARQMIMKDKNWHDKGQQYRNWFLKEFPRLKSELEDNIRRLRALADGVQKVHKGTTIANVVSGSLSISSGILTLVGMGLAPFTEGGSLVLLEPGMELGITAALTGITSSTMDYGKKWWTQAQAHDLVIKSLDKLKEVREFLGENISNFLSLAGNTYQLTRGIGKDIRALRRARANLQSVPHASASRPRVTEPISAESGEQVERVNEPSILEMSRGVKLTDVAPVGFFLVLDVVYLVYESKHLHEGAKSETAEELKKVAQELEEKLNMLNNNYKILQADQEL
Procedure details: MultiTox-Fluor Multiplex Cytotoxicity Assay in tet-inducible APOL1 T-REx-HEK293 cells (cell rescue, ratio of dead to live cells)
Measurement conditions: tet-inducible transgenic APOL1 T-REx-HEK293 cell lines, 50 ng/mL tet, 24 hours; read-out: IP50 (i.e., IC50 for cell proliferation)
pIC50: −log10 of the molar value.
Exercise: for every item that follows, state its recorded pIC50.

Input: What does the data say about its pIC50? Entry: CCc1cc2c(s1)CCO[C@@]21CCN(Cc2cn(C[C@H](O)C(C)(C)C)nn2)[C@@H](C)C1
Output: > 7.00

Input: Also need CCc1cc2c(s1)CCOC21CCN(Cc2cnc(N[C@H](CC)CO)nc2)CC1 , thanks.
Output: 6.30 to 7.00

Input: Another molecule to check: C[C@H]1C[C@@]2(CCN1Cc1cn(C)nn1)OCCc1c2sc(Cl)c1CO
Output: 6.30 to 7.00

Input: Record: CCc1cc2c(s1)CCO[C@@]21CCN(Cc2cnc(NCC(O)C(F)(F)F)nc2)[C@@H](C)C1 (stereo partly shown)
Output: 6.30 to 7.00

Input: Then what about the molecule C[C@H]1C[C@@]2(CCN1Cc1cnn(CCO)c1)OC[C@@H](O)c1cc(C(F)(F)F)sc12 ?
Output: > 7.00

Input: Param item: C[C@H]1C[C@@]2(CCN1Cc1ccnn1C)OCCc1cc(Cl)sc12
Output: 6.00 to 6.30

Input: # repeat for CCc1cc2c(s1)CCOC21CCN(Cc2ccc(C(=O)NC3CC(C)(O)C3)nc2)CC1 (stereo not shown)
Output: 6.30 to 7.00

Input: Same lookup for C[C@H]1C[C@@]2(CCN1Cc1cc(F)cc(F)c1O)OC[C@H](O)c1cc(Cl)sc12 , please.
Output: 6.00 to 6.30

Input: Note, next up: C[C@H]1C[C@@]2(CCN1CC1(O)CCOCC1)OCCc1cc(CC(F)F)sc12
Output: 6.30 to 7.00

Input: And for COc1ccc(CN2CC[C@]3(C[C@@H]2C)OC[C@H](O)c2cc(Cl)sc23)cn1 ?
Output: > 7.00

Input: Note, next up: CCc1cc2c(s1)CCO[C@@]21CCN(C[C@H]2C[C@@H](NC(=O)c3cnn(CC(F)(F)F)c3)C2)[C@@H](C)C1
Output: 6.30 to 7.00

Input: Can you handle CC1COC2(CCN(Cc3cn(CCS(C)(=O)=O)nn3)[C@@H](C)C2)c2cc(C(F)(F)F)sc21 (stereo partly shown) next?
Output: > 7.00

Input: And what about the molecule C[C@H]1C[C@@]2(CCN1Cc1cccc(F)c1)OCCc1cc(Cl)sc12 ?
Output: 6.00 to 6.30

Input: Same for CCc1cc2c(s1)CCO[C@@]21CCN(Cc2cn(CCn3cccn3)nn2)[C@@H](C)C1
Output: 6.30 to 7.00

Input: Another: C[C@H]1C[C@@]2(CCN1Cc1ccc3c(c1)n(C)c(=O)n3C)OCCc1cc(CC(F)F)sc12
Output: > 7.00

Input: // same read-out, input: CCc1cc2c(s1)CCOC21CCN(Cc2cn(CC3(O)CCCC3)nn2)CC1
Output: 6.30 to 7.00
